tested on: Plasmodium falciparum NF54 stage IV/V gametocytes; experiment: % inhibition of gametocyte viability (luciferase reporter); higher = more inhibition; conditions: 1 µM; 48 h
A collection of compounds and their measured % inhibition of gametocyte viability
value kind: % inhibition of gametocyte viability (%)

CCOC(=O)/C=C/[C@H](C[C@@H]1CCNC1=O)NC(=O)[C@H](CC)n1cccc(NC(=O)c2cc(C)on2)c1=O    6.73
Oc1c(C(Nc2ccccn2)c2ccccc2)ccc2cccnc12 (stereo not given)    0.252
C=CCN(C(=O)OCc1ccc([N+](=O)[O-])cc1)C1CCN(CC[C@](C)(CN(C)S(=O)(=O)c2ccccc2)c2ccccc2)CC1    2.56
O=C(O)COc1cccc2c1CC[C@](O)(COC(=O)N(c1ccccc1)c1ccccc1)C2    1.62
Nc1ccc2oc(=O)ccc2c1I    3.24
Cc1ccc(N2CCC(CCOc3ccc(S(C)(=O)=O)cc3)CC2)nn1    0.296
COc1ccc(CNC(=O)C(NS(=O)(=O)c2ccc3nc(C)sc3c2)C(C)C)cc1 (stereo not given)    13.6
Cn1cc(NC(=O)c2cc(NC(=O)c3ccc(/C=C/c4cnc5ccccc5c4)cc3)cn2C)cc1C(=O)NCCN1CCOCC1    64.1
